Just for reference, ChEMBL document CHEMBL3797117 is where these values come from.

- experimentalSystem: Aldo-keto reductase family 1 member B1 (Rattus norvegicus, UniProt P07943)
Decide using IC50 alone. Strictly below 5 µM: condition met. Equal to or above 5 µM: condition not met.

Consider the following illustrative entries.
[
  {
    "smilesData": "Cc1ccc2c(c1)S(=O)(=O)N(Cc1ccc(O)cc1)CN2CC(=O)O",
    "assignedCategory": "condition not met"
  },
  {
    "smilesData": "COc1ccc(CN2CN(CC(=O)O)c3ccc(OC)cc3S2(=O)=O)cc1",
    "assignedCategory": "condition not met"
  },
  {
    "smilesData": "COc1ccc(F)c(CN2CN(CC(=O)O)c3ccc(C)cc3S2(=O)=O)c1",
    "assignedCategory": "condition met"
  },
  {
    "smilesData": "Cc1ccc2c(c1)S(=O)(=O)N(Cc1cc(O)ccc1F)CN2CC(=O)O",
    "assignedCategory": "condition met"
  },
  {
    "smilesData": "O=C(O)CN1CN(Cc2ccccc2)S(=O)(=O)c2cc(O)ccc21",
    "assignedCategory": "condition not met"
  }
]

Q) Field: below-cutoff. Rule: recorded IC50 strictly less than 5 µM. Subject: COc1ccc(F)c(CN2CN(CC(=O)O)c3ccc(Br)cc3S2(=O)=O)c1
A) condition met
